Experiment: Toxicokinetics of cereulide in rabbits after a single intravenous injection (plasma, UPLC-MS/MS)
Type: in vivo, New Zealand White rabbits
Settings: both sexes, New Zealand White, rabbit, plasma, iv, 5 ug, single i.v. 5 μg cereulide/rabbit, plasma, UPLC-MS/MS, non-compartmental, n = 8, median, read-out: Tmax, time to peak concentration
parameter_measured: Tmax (min)
# unit: min | format: bare number

Exercise: Recorded Tmax for CC(C)C[C@H]1OC(=O)[C@H](C(C)C)NC(=O)[C@H](C(C)C)OC(=O)[C@@H](C)NC(=O)[C@@H](CC(C)C)OC(=O)[C@H](C(C)C)NC(=O)[C@H](C(C)C)OC(=O)[C@@H](C)NC(=O)[C@@H](CC(C)C)OC(=O)[C@H](C(C)C)NC(=O)[C@H](C(C)C)OC(=O)[C@@H](C)NC1=O [cereulide] , please?
Solution: 12

Where do these numbers come from? They come from paper PMC4926125.
